- measurement target: UniProtKB P15145
- Sequence (P15145 whole entry): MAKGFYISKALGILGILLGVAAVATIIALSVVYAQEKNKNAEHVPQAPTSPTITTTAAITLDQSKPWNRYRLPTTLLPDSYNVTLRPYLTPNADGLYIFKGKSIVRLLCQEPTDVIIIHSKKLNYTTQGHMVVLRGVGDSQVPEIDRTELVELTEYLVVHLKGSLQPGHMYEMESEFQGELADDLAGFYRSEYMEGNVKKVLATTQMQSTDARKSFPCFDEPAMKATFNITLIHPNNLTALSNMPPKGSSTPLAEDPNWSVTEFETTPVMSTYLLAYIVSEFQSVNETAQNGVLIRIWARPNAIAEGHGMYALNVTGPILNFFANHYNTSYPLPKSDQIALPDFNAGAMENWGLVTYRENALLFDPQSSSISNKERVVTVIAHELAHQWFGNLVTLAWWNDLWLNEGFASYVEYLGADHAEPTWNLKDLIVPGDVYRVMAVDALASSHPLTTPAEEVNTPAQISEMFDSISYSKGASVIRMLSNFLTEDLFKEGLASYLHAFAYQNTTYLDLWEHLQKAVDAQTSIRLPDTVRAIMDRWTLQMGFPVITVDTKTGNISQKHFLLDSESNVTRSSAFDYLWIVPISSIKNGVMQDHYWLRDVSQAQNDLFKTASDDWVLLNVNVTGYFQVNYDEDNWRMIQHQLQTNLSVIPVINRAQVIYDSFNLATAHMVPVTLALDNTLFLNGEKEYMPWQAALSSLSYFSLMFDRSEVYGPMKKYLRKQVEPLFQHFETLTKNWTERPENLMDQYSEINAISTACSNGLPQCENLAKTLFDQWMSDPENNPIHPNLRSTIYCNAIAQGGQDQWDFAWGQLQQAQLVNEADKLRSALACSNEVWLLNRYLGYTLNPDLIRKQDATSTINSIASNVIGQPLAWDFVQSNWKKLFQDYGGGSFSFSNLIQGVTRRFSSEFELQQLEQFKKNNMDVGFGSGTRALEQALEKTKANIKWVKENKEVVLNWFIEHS
A compilation of published IC50 results with UniProtKB P15145.
Note: unit µM is implicit; provide only the numeric part.

Would you please look over these solved cases?
[
  {
    "compound": "N[C@@H](Cc1ccccc1)C(=O)N[C@H]1CCC(=O)N(CC(=O)NCC(=O)O)C1=O",
    "unit of measure": "µM",
    "readout value": 38.7
  },
  {
    "compound": "CC[C@H](C)[C@H](NC(=O)NCc1ccccc1)C(=O)NO",
    "unit of measure": "µM",
    "readout value": 4.1
  },
  {
    "compound": "CC(C)C[C@H](NC(=O)NCc1cn(C(C)c2ccccc2)nn1)C(=O)NO (some centres undefined)",
    "unit of measure": "µM",
    "readout value": 1.9
  },
  {
    "compound": "CC(C)C[C@H](NC(=O)[C@@H](O)[C@H](N)Cc1ccccc1)C(=O)NCC(=O)O.Cl",
    "unit of measure": "µM",
    "readout value": 0.6
  },
  {
    "compound": "O=C(O)C[C@H](NC(=O)[C@H](CC(=O)NO)Cc1ccccc1)c1ccccc1",
    "unit of measure": "µM",
    "readout value": 0.4
  }
]

// lookup IC50 for O=C(CNC(=O)NCCc1ccccc1)NO
52

Same read-out for O=C(NCCc1ccccc1)N[C@@H](Cc1ccccc1)C(=O)NO ?
6.5

Same read-out for CC[C@@H](C)[C@H](N)C(=O)N[C@H]1CC(=O)N(CC(=O)NO)C1=O ?
1

Same read-out for O=C(CC(Cc1ccccc1)C(=O)NCC(Cc1ccccc1)C(=O)O)NO (centres undefined) ?
0.0715

Same read-out for CC(C)C[C@H](NC(=O)NCc1cn(Cc2cccc3ccccc23)nn1)C(=O)NO ?
1.4

Same read-out for CC(C)C[C@H](NC(=O)NCc1cn(Cc2ccccc2OCc2ccccc2)nn1)C(=O)NO ?
0.089

Same read-out for CC(C)C[C@@H](NC(=O)C1CCN(c2ncnc3[nH]ccc23)CC1)C(=O)NO ?
0.05

Same read-out for NC(Cc1ccccc1)C(=O)N[C@H]1CCC(=O)N(CC(=O)NCCC(=O)O)C1=O (single isomer, unassigned) ?
12.8

Same read-out for CC(C)C[C@H](NC(=O)CN1C(=O)CC[C@H](NC(=O)[C@@H](N)Cc2ccccc2)C1=O)C(=O)OCc1ccccc1 ?
30.2

Same read-out for Cc1cc(C)c(NC(=O)N[C@@H](CC(C)C)C(=O)NO)c(C)c1 ?
0.08

Same read-out for CC(C)C[C@H](NC(=O)[C@H](N)Cc1ccccc1)C(=O)NC[C@H](N)[C@@H](O)c1ccc([N+](=O)[O-])cc1 ?
74.7

Same read-out for CC(C)[C@H](NC(=O)N[C@@H](CS)C(=O)NC[C@H](N)Cc1ccccc1)C(=O)O ?
58.8

Same read-out for Cc1nc2ccccc2n(CC(=O)N/N=C/c2ccc([N+](=O)[O-])cc2)c1=O ?
644

Same read-out for CC(C)C[C@H](NC(=O)NCc1cn(Cc2cccc(N)c2)nn1)C(=O)NO ?
3.7

Same read-out for Cc1ccc(NC(=O)CN2C(=O)CC[C@H](NC(=O)[C@@H](N)Cc3ccccc3)C2=O)c(C)c1 ?
5
